- Experiment: NCI Yeast Anticancer Drug Screen. Data for the bub3 strain (AID 167)
- Condition: S. cerevisiae bub3 mutant strain, at 50.0 µM (retest, dose inferred, filed as 5.0)
This is part of a sample that, as a whole, favours compounds with a hit. Of some 79,000 tested, about 15% had one in any assay. The source made the active and inactive calls. Cut-off read from the data, not from the text of the source: active = growth inhibition above about 70%; inactive = the rest.
The categories you may choose from are yes (1) for active, no (0) for inactive

Observe how each entry below is paired with its result.
CN(C)c1ccc(/C=C/c2ccnc3ccc4ccccc4c23)cc1 :: no (0)
CCCCCC(=O)C(C)(c1nc2n(c1O)/C(=N/C(=O)Nc1ccc(Cl)cc1)N=N2)c1nc2n(c1O)/C(=N/C(=O)Nc1ccc(Cl)cc1)N=N2 :: no (0)
O=C1c2ccccc2C(=O)C1C(c1ccc(F)cc1)C1C(=O)c2ccccc2C1=O :: yes (1)
Nc1nc(Nc2ccccc2)nc(Nc2ccccc2)n1 :: no (0)

# evaluate next
I'd appreciate the recorded outcome for COC1=C(N=[N+]=[N-])C(=O)c2ncccc2C1=O from this test. yes (1)
